Taken from paper PMC5851651.

Target desc: DRB1*03:01 (Homo sapiens, UniProt P01903+P01911, A100K/A102G/A103R/A169T/F55Y/I96L/K41T/L162R/M171V/P40S/Q125H/Q178H/Q39Y/R42S/S66N/T106N/T262R/W38E/Y61H)
Construct: purchased ProImmune
Test details: REVEAL HLA-Peptide binding assay (ProImmune)
Experimental setup: time 0 (H0); score relative to high-affinity control peptide, percentage of the control signal
Measure name: DRB1*03:01 (%)
Give the value in % but do not write % after it.

Lab book: DRB1*03:01 of YTRYLRIHPQSWEHQ [Design M-12, peptide covering L2321Y, V2333E] noted as 0.155

Lab book: DRB1*03:01 of LTRYLRIHPQSWVHQ [WT-3, wild-type peptide of Factor VIII C2 domain, reference compound] noted as 0.243

Lab book: DRB1*03:01 of FTRYLRIHPQSWEHQ [Design M-10, peptide covering L2321F, V2333E] noted as 0.020

Lab book: DRB1*03:01 of LTRHLRIHPQSWEHQ [Design M-8, peptide covering Y2324H, V2333E] noted as 0.000

Lab book: DRB1*03:01 of LTRYLKIHPQSWEHQ [Design M-9, peptide covering R2326K, V2333E] noted as 1.668

Lab book: DRB1*03:01 of RIHPQSWVHHIALRM [Design M-4, peptide covering Q2335H] noted as 0.005

Lab book: DRB1*03:01 of VNSLDPPLTTRYLRI [Design M-2, peptide covering L2321T] noted as 0.100

Lab book: DRB1*03:01 of LRIHPQSWVHQIALRM [WT-4, wild-type peptide of Factor VIII C2 domain, reference compound] noted as 0.200

###

Target desc: DRB1*03:01 (Homo sapiens, UniProt P01903+P01911, A100K/A102G/A103R/A169T/F55Y/I96L/K41T/L162R/M171V/P40S/Q125H/Q178H/Q39Y/R42S/S66N/T106N/T262R/W38E/Y61H)
Construct: purchased ProImmune
Test details: REVEAL HLA-Peptide binding assay (ProImmune)
Experimental setup: time 0 (H0); score relative to high-affinity control peptide, percentage of the control signal
Measure name: DRB1*03:01 (%)
Give the value in % but do not write % after it.

Lab book: DRB1*03:01 of TTRYLRIHPQSWEHQ [Design M-11, peptide covering L2321T, V2333E] noted as 0.544

Lab book: DRB1*03:01 of LRIHPQSWEHQIALRM [Design M-6, peptide covering V2333E] noted as 0.157

Lab book: DRB1*03:01 of VNSLDPPLYTRYLRI [Design M-3, peptide covering L2321Y] noted as 0.000

Lab book: DRB1*03:01 of LRLHPQSWEHQIALRM [Design M-15, peptide covering I2327L, V2333E] noted as 0.032

Lab book: DRB1*03:01 of LTRLLRIHPQSWEHQ [Design M-7, peptide covering Y2324L, V2333E] noted as 0.026

Lab book: DRB1*03:01 of LRIHPQSWVHHIALRM [Design M-5, peptide covering Q2335H] noted as 0.555

Lab book: DRB1*03:01 of VNSLDPPLLTRYLRI [WT-1, wild-type peptide of Factor VIII C2 domain, reference compound] noted as 0.697

Lab book: DRB1*03:01 of RIHPQSWVHQIALRM [WT-2, wild-type peptide of Factor VIII C2 domain, reference compound] noted as 0.226

Lab book: DRB1*03:01 of FTRYLRIHPQSWVHH [Design M-13, peptide covering L2321F, Q2335H] noted as 1.449

Lab book: DRB1*03:01 of VNSLDPPLFTRYLRI [Design M-1, peptide covering L2321F] noted as 0.165

###

Please provide measured DRB1*15:01 for the entries that follow.
Target desc: DRB1*15:01 (Homo sapiens, UniProt P01903+P01911)
Construct: purchased ProImmune
Test details: REVEAL HLA-Peptide binding assay (ProImmune)
Experimental setup: time 0 (H0); score relative to high-affinity control peptide, percentage of the control signal
Give the value in % but do not write % after it.

Lab book: DRB1*15:01 of YTRYLRIHPQSWEHQ [Design M-12, peptide covering L2321Y, V2333E] noted as 3.876

Lab book: DRB1*15:01 of LTRYLRIHPQSWVHQ [WT-3, wild-type peptide of Factor VIII C2 domain, reference compound] noted as 30.478

Lab book: DRB1*15:01 of RIHPQSWVHHIALRM [Design M-4, peptide covering Q2335H] noted as 9.756

Lab book: DRB1*15:01 of VNSLDPPLLTRYLRI [WT-1, wild-type peptide of Factor VIII C2 domain, reference compound] noted as 7.274

Lab book: DRB1*15:01 of RIHPQSWVHQIALRM [WT-2, wild-type peptide of Factor VIII C2 domain, reference compound] noted as 5.029

Lab book: DRB1*15:01 of FTRYLRIHPQSWEHQ [Design M-10, peptide covering L2321F, V2333E] noted as 2.906

Lab book: DRB1*15:01 of LRIHPQSWEHQIALRM [Design M-6, peptide covering V2333E] noted as 44.319

Lab book: DRB1*15:01 of LRIHPQSWVHHIALRM [Design M-5, peptide covering Q2335H] noted as 47.784

###

Tested on: DRB1*15:01, DRB1*03:01 and DRB1*07:01
Test details: Experimental immunogenicity score: relative HLA binding combined across alleles, weighted by allele frequency
Design: species or system human; key: allele-frequency-weighted sum of binding, % of control peptide signal
Experimental setup: after 24 hours (H24); per peptide against wild-type counterpart
Measure name: Difference to WT (Experimental Score)
# print the numeric value only

Lab book: Difference to WT (Experimental Score) of VNSLDPPLFTRYLRI [Design M-1, peptide covering L2321F] noted as 0.042

Lab book: Difference to WT (Experimental Score) of FTRYLRIHPQSWEHQ [Design M-10, peptide covering L2321F, V2333E] noted as -9.338

Lab book: Difference to WT (Experimental Score) of LRLHPQSWEHQIALRM [Design M-15, peptide covering I2327L, V2333E] noted as -4.380

Lab book: Difference to WT (Experimental Score) of LTRYLKIHPQSWEHQ [Design M-9, peptide covering R2326K, V2333E] noted as -10.725

Lab book: Difference to WT (Experimental Score) of LTRHLRIHPQSWEHQ [Design M-8, peptide covering Y2324H, V2333E] noted as -13.048

Lab book: Difference to WT (Experimental Score) of VNSLDPPLYTRYLRI [Design M-3, peptide covering L2321Y] noted as 0.077

###

Target desc: DRB1*07:01 (Homo sapiens, UniProt P01903+P01911, A100R/A102G/A103Q/D57E/D86V/E43K/F76Y/K127E/L162R/M171V/P40G/Q125H/Q99D/R33Q/R42Y/R54Q/S133A/S66F/T210M/V115G/Y107V/Y59L/Y89S)
Test details: REVEAL HLA-Peptide binding assay (ProImmune)
Experimental setup: after 24 hours (H24); score relative to high-affinity control peptide, percentage of the control signal
Measure name: DRB1*07:01 (%)
Give the value in % but do not write % after it.

Lab book: DRB1*07:01 of TTRYLRIHPQSWEHQ [Design M-11, peptide covering L2321T, V2333E] noted as 49.600

Lab book: DRB1*07:01 of LRIHPQSWVHQIALRM [WT-4, wild-type peptide of Factor VIII C2 domain, reference compound] noted as 38.252

Lab book: DRB1*07:01 of VNSLDPPLYTRYLRI [Design M-3, peptide covering L2321Y] noted as 0.900

Lab book: DRB1*07:01 of LRIHPQSWEHQIALRM [Design M-6, peptide covering V2333E] noted as 19.800

Lab book: DRB1*07:01 of VNSLDPPLFTRYLRI [Design M-1, peptide covering L2321F] noted as 0.497

Lab book: DRB1*07:01 of LTRLLRIHPQSWEHQ [Design M-7, peptide covering Y2324L, V2333E] noted as 20.100

Lab book: DRB1*07:01 of RIHPQSWVHHIALRM [Design M-4, peptide covering Q2335H] noted as 53.300

Lab book: DRB1*07:01 of LTRHLRIHPQSWEHQ [Design M-8, peptide covering Y2324H, V2333E] noted as 0.100

Lab book: DRB1*07:01 of YTRYLRIHPQSWEHQ [Design M-12, peptide covering L2321Y, V2333E] noted as 40.700

Lab book: DRB1*07:01 of RIHPQSWVHQIALRM [WT-2, wild-type peptide of Factor VIII C2 domain, reference compound] noted as 35.522
